Known log10 of IC50 of a selection of compounds
target under test: UniProt P17931
Sequence (P17931 whole entry): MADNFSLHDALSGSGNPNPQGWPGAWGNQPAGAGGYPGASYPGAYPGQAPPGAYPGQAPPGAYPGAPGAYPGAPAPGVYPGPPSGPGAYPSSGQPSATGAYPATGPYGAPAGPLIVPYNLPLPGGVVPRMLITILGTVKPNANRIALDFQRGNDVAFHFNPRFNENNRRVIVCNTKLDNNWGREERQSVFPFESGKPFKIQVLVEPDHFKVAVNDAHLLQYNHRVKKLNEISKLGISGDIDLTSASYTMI
In our notation, the value equals log10 of IC50 in nM.

Given CO[C@@H]1[C@@H](n2cc(-c3ccc(C)c(F)c3F)nn2)[C@@H](O)[C@@H](CO)O[C@@H]1Cc1cc(C2(O)CCC2)no1 , state its recorded log10 of IC50.
1.91

Given CO[C@@H]1[C@@H](n2cc(-c3ccc(Br)c(F)c3F)nn2)[C@@H](O)[C@@H](CO)O[C@@H]1Cc1cc(C2CCN(S(C)(=O)=O)CC2)on1 , state its recorded log10 of IC50.
1.34

Given CO[C@@H]1[C@@H](n2cc(-c3ccc(F)c(F)c3F)nn2)[C@@H](O)[C@@H](CO)O[C@@H]1Cc1cc(C2(C#N)CCCC2)on1 , state its recorded log10 of IC50.
2.15

Given CO[C@@H]1[C@@H](n2cc(-c3cc(F)c(F)c(F)c3)nn2)[C@@H](O)[C@@H](CO)O[C@@H]1CC1=NOC(C(C)(C)O)C1 (some centres not stated) , state its recorded log10 of IC50.
2.67

Given CO[C@@H]1[C@@H](n2cc(-c3ccc(C)c(F)c3F)nn2)[C@H]2OC(C)(C)OC[C@H]2O[C@@H]1Cc1cc(C(C)c2ccccc2)no1 (some centres not stated) , state its recorded log10 of IC50.
2.30

Given CO[C@@H]1[C@@H](n2cc(-c3ccc(Cl)c(F)c3F)nn2)[C@@H](O)[C@@H](CO)O[C@@H]1Cc1cc(C2CCN(C(C)=O)CC2)on1 , state its recorded log10 of IC50.
1.63

Given CC(=O)N1CCC(c2cc(C[C@H]3O[C@H](CO)[C@H](O)[C@H](n4cc(-c5cc(F)c(F)c(F)c5)nn4)[C@H]3O)no2)CC1 , state its recorded log10 of IC50.
1.66
